- System Tested: RadA-EL1 (extracellular loop 1 of connexin43 grafted into the monomeric ATPase domain of Pyrococcus furiosus … (Pyrococcus furiosus | , Only the grafted connexin43 EL1 loop (the binding part) is given. It was displayed on the His-tagged monomeric RadA ATPase domain of Pyrococcus furiosus, treated here as a carrier. The scaffold limits))
- Sequence (chain, as listed by the source): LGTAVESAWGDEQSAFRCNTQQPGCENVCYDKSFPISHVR
- Measurement Protocol: SPR; Biacore T200; his-tagged RadA-EL1 captured on NTA surface (about 200 RU) as ligand, Gap27 injected as analyte at 30 µL/min; 25 °C; 50 mM HEPES pH 7.5, 500 mM NaCl, 0.005% Tween-20; reference channel without nickel; 1:1 binding model
- Condition Set: both partners purified
pKd: −log10 of the molar value.
Experimental Endpoint: pKd

Binder | Experimental Endpoint | Reading
SRPTEKTIFII (connexin43 mimetic peptide, 11 amino acids, analogue of the second extracellular loop (EL2) of connexin43; The peptide was tested on the RadA-EL1 construct; also called G27; connexin mimetic peptide Gap27; source: bought: Pepnome Inc., Hong Kong (peptide)) [Gap27] | pKd | 5.22
